B1: PPFIA4 (parent)
chain: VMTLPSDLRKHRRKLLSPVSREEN

Variants of: B1
measurement.description: protein stability index of a GFP-peptide fusion (GPS, HEK-293T) (PSI 1-6); higher = more stable;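 further: lentivirally expressed fusions sorted by FACS into six bins by GFP to DsRed ratio, PSI derived from sequencing read proportions per bin multiplied by bin number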
settings: c terminus: a fixed tail appended
Give protein stability index for every item shown.
Response field accepts a number only; no unit should be typed.

Entry VMTLRSDLRKHRRKLLSPVSREEN [P5R] : reported protein stability index = ?
4

Repeat with VMTLPSDLRKHRRKLLSPNSREEN [V19N]
3.91

Repeat with VMTLPSDLRKHRNKLLSPVSREEN [R13N]
3.95

Repeat with VMTLPSDLRKHRDKLLSPVSREEN [R13D]
4.09

Repeat with VMTLPHDLRKHRRKLLSPVSREEN [S6H]
3.52

Repeat with VMTLPSDLRKFRRKLLSPVSREEN [H11F]
3.46

Repeat with VMTLPSDLRKHRRKLLSPVSMEEN [R21M]
4.09

Repeat with VMTLPSDLRKHRRKLLSPVSIEEN [R21I]
3.9

Repeat with VMTLPSDLRKHRRKLLSPVSREEE [N24E]
4.31

Repeat with VMTLPSDLRKHRRKLLSPVSHEEN [R21H]
4.17

Repeat with VMTLPSDLRKDRRKLLSPVSREEN [H11D]
4.37

Repeat with VMTLPSDLRKHRRKLLSPVSREEM [N24M]
3.07

Repeat with VRTLPSDLRKHRRKLLSPVSREEN [M2R]
4.04

Repeat with VMTLPSDLRIHRRKLLSPVSREEN [K10I]
3.25

Repeat with VMTLPSDLVKHRRKLLSPVSREEN [R9V]
3.82

Repeat with VMTLPSDFRKHRRKLLSPVSREEN [L8F]
3.59

Repeat with VMTLPSDLRKHRRKLLSPVSRPEN [E22P]
2.85

Repeat with VMTLPKDLRKHRRKLLSPVSREEN [S6K]
3.24

Repeat with VMTLPSDLRKHRRKLLSPVSRTEN [E22T]
3.22

Repeat with VMTLPSDLRKHRRKLRSPVSREEN [L16R]
3.99

Repeat with VMTLPSDLRKHRRKLLSPVTREEN [S20T]
3.75

Repeat with VMTLPSDLRKHRRKLLSPVWREEN [S20W]
2.63

Repeat with VMTLPSDLRKHRRKLLSPVGREEN [S20G]
4.22

Repeat with VMTLPSRLRKHRRKLLSPVSREEN [D7R]
3.31

Repeat with VMTLPSDLRKHRRKLLRPVSREEN [S17R]
3.77

Repeat with VMTLPSDLRFHRRKLLSPVSREEN [K10F]
2.75

Repeat with VMTLPSDLRKHVRKLLSPVSREEN [R12V]
3.41

Repeat with VMTLPSDLRKHRRKLLDPVSREEN [S17D]
4.29

Repeat with VMTLPSDLRKHRTKLLSPVSREEN [R13T]
3.98

Repeat with VMTLPSDLRKHRRKLLSGVSREEN [P18G]
4.12

Repeat with VMTLPSDLRKHRRKLLSFVSREEN [P18F]
2.83

Repeat with VMTLPSDLRKHRRKVLSPVSREEN [L15V]
3.81

Repeat with VMTLPSTLRKHRRKLLSPVSREEN [D7T]
3.24
